Test system: SF-539 CNS
PROTOCOL_DESCRIPTION: NCI-60 one-dose screen, 48 h (100 = growth as untreated, 0 = no growth, -100 = all killed)
EXPERIMENTAL_CONTEXT: 10 µM unless noted
The panel holds about 83,000 compounds, 20% with a hit somewhere; the sample as a whole holds those more often.
The entries below come with measured growth values attached.
Numbers only here, please. The scale is %.

The following compounds have reported results that may help.
COMPOUND | growth [%]
COc1ccc(NC(=O)n2nc(/C=C\c3ccc(O)c(OC)c3)cc2/C=C\c2ccc(O)c(OC)c2)cc1 | 6.72
COc1cc2oc(-c3ccc(O)cc3)cc(=O)c2c(O)c1-c1c(OC)cc(O)c2c(=O)cc(-c3ccc(O)cc3)oc12 | 18
O=C(/C=C/c1ccc([N+](=O)[O-])o1)NNC(=O)c1cc2ccccc2cc1O | -22.6
Cc1nc2ccccc2c(/C=C/c2ccc(Cl)cc2)c1C(=O)/C=C/c1cccs1 | 99.5

[in] Which growth reading was recorded for the compound CC1=NN(c2ccc(S(=O)(=O)O)cc2)C(=O)C1N=Nc1ccc(-c2ccc(N=Nc3ccc(OS(=O)(=O)c4ccc(C)cc4)cc3)c(S(=O)(=O)O)c2)cc1 (stereo not given) ?
[out] 85.1
